Target: Arginase (Leishmania amazonensis, UniProt O96394)
Test: Non-competitive inhibition of Leishmania amazonensis arginase using L-arginine as substrate incubated for 15 mins

>  <structure.smiles.string>
Cc1cc(NNC(N)=S)n2nc(C(F)(F)F)nc2n1

>  <IC50 (µM)>
16.5

$$$$

* * *

# inhibition annotations
Molecular target: Arginase (Leishmania amazonensis) (UniProt O96394)
Assay: Inhibition of recombinant Leishmania amazonensis arginase expressed in Escherichia coli at 100 uM using L-arginine as substrate relative to control
measured.parameter: inhibition (%)

>  <structure.smiles.string>
N#Cc1ccc(-n2ncc3c(NNC(N)=S)ncnc32)cc1

>  <numeric.result>
59.8

$$$$
>  <structure.smiles.string>
NC(=S)NNc1ncnc2c1cnn2-c1ccc(C(F)(F)F)cc1

>  <numeric.result>
73.8

$$$$
>  <structure.smiles.string>
Cc1cc(NNC(N)=S)n2nc(C(F)(F)F)nc2n1

>  <numeric.result>
81

$$$$
>  <structure.smiles.string>
NC(=S)NNc1ncnc2c1cnn2-c1ccc(Cl)cc1

>  <numeric.result>
46

$$$$
>  <structure.smiles.string>
Cc1ccc(-n2ncc3c(NNC(N)=S)ncnc32)cc1

>  <numeric.result>
42.2

$$$$
>  <structure.smiles.string>
NC(=S)NNc1ncnc2c1cnn2-c1ccc(F)cc1

>  <numeric.result>
36.4

$$$$
>  <structure.smiles.string>
NC(=S)NNc1ncnc2c1cnn2-c1ccccc1

>  <numeric.result>
74.3

$$$$
